These measurements were taken from ChEMBL document CHEMBL1961873.

molecular target: Protein-tyrosine kinase 2-beta (Homo sapiens); details: at 0.1 µM
Provide the recorded inhibition for the entries that follow.
Report as a plain number; the unit % is understood.

Requested field: inhibition. Item: CS(=O)(=O)CCNCc1ccc(-c2ccc3ncnc(Nc4ccc(OCc5ccccc5)c(Br)c4)c3c2)o1
3.86

Next up: COc1ccc2cc(-c3c(-c4ccncc4)nc(-c4ccc([S+](C)[O-])cc4C)n3C)ccc2c1 (centres undefined)
-4.54

Queued: CN(c1ccc(NC(=O)Nc2c(Cl)cccc2Cl)cc1)c1ccnc(Nc2cccc(CS(C)(=O)=O)c2)n1
55.1

Also check COc1ccc2cc(-c3c(-c4ccncc4)nc(-c4ccc(S(C)(=O)=O)cc4C)n3C)ccc2c1
12.8

Try CN(C)CCOc1ccc(-c2cc(-c3ccc4c(c3)CCC4=NO)c(-c3ccncc3)o2)cc1 next.
-7.75

What about this compound? Fc1ccc(-c2ncn(CCCN3CCOCC3)c2-c2ccncc2)cc1
0.29

Next compound up: c1ccc(Oc2ccc(Nc3ncc(-c4ccccc4)o3)cc2)cc1
6.6

Likewise for C[C@@H](Oc1cc(-n2cnc3ccc(OC4CCN(C)CC4)cc32)sc1C(N)=O)c1ccccc1Cl ?
4.13

Ok, now NS(=O)(=O)c1ccc(N/N=C2\C(=O)Nc3ccc(C(=O)NCCCn4ccnc4)cc32)cc1
14.3

---

target: Protein-tyrosine kinase 2-beta (Homo sapiens) (UniProt Q14289); conditions: at 1 µM
Sequence (Q14289 whole entry, looked up): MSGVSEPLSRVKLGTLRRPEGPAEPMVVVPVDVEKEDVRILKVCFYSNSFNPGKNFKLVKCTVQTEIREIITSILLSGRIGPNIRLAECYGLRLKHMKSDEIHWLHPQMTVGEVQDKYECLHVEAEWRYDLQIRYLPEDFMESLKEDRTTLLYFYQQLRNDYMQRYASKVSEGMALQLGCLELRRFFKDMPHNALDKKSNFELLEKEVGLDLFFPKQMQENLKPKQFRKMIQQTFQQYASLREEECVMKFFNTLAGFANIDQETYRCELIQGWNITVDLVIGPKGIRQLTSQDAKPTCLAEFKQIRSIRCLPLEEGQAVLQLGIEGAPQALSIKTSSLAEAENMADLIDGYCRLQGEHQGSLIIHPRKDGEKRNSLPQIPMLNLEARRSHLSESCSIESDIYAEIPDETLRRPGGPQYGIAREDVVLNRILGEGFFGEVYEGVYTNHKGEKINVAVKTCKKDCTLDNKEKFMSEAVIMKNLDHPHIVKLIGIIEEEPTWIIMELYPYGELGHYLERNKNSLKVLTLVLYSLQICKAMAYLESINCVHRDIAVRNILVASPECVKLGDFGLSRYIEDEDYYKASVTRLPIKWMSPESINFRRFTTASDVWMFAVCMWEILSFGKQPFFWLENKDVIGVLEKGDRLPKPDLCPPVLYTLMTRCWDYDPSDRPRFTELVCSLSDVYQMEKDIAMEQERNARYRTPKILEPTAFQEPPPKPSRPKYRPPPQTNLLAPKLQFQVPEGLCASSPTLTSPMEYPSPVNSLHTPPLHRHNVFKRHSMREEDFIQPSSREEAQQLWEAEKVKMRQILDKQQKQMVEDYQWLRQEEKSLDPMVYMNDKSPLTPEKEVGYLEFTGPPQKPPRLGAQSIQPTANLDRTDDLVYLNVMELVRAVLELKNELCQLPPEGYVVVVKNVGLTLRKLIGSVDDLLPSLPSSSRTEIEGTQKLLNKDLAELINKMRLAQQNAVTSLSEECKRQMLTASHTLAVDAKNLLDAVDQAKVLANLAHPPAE
For each entry below, report its inhibition value.
Hey, just the number and the unit after it is fine.

Recorded inhibition of NC(=O)c1cc(-c2ccncc2)cc(-c2ccccc2)c1N , please.
13.4%

Thanks! And COc1ccc(-c2ccc3c(NC(=O)C4CC4)n[nH]c3n2)cc1 ?
6.52%

And what about the compound O=C(Nc1ccc(Oc2ccc3[nH]c(NC(=O)c4ccccc4)nc3c2)cc1)Nc1cc(C(F)(F)F)ccc1F ?
14.2%

Now consider COc1ccc2cc(-c3c(-c4ccncc4)nc(-c4ccc([S+](C)[O-])cc4C)n3C)ccc2c1 (configuration not stated) and answer again.
-2.74%

Same lookup for COc1ccc2cc(-c3c(-c4ccncc4)nc(-c4ccc(S(C)(=O)=O)cc4C)n3C)ccc2c1 , please.
12.4%

Another compound: O=C(Nc1n[nH]c2cc(-c3cc(F)ccc3F)ccc12)C1CC1
10.3%

# repeat for C[C@@H](Oc1cc(-n2cnc3ccc(OC4CCN(C)CC4)cc32)sc1C(N)=O)c1ccccc1Cl
11.7%

Now consider O=C1NC(=O)C(c2cccc(Cl)c2)=C1Nc1ccc(Cl)c(C(=O)O)c1 and answer again.
6.6%

Please give the result for CCc1ccc(Oc2nccc(-c3c(-c4ccc(F)cc4)ncn3C3CCNCC3)n2)cc1 too.
2.07%

Same lookup for COc1cc(Nc2ncc(-c3ccccc3)o2)cc(OC)c1OC , please.
5.39%

Now give it for CCS(=O)(=O)c1ccc(OC)c(Nc2ncc(-c3ccccc3Cl)o2)c1 too.
45.2%

What would you report for Fc1ccc(-c2ncn(C3CCNCC3)c2-c2ccnc(Oc3ccc4c(c3)OCO4)n2)cc1 ?
9.57%

Could you do the same for CS(=O)(=O)CCNCc1ccc(-c2ccc3ncnc(Nc4ccc(OCc5ccccc5)c(Br)c4)c3c2)o1 , please?
10.1%

# iterate: Cc1ccc(C(=O)NC2CCC2)cc1-c1ccc(C(=O)NCC2CC2)cc1
4.27%

Same read-out for COc1ccc2ncn(-c3cc(O[C@H](C)c4ccccc4Cl)c(C(N)=O)s3)c2c1 ?
9.58%

Item: C[C@@H](Oc1cc(-n2cnc3ccc(OCC4CCN(C)CC4)cc32)sc1C(N)=O)c1ccccc1Cl
13.7%

Likewise for COC(=O)Nc1nc2ccc(Sc3ccc(NC(=O)Nc4cc(C(F)(F)F)ccc4F)cc3)cc2[nH]1 ?
0.15%

Moving on to COc1cc(C)c(N(C)C(=O)CN(C)C)cc1Nc1nc(Nc2cccc(F)c2C(N)=O)c2cc[nH]c2n1
45.8%

// repeat for NS(=O)(=O)c1ccc(Nc2cc(-c3ccc(O)c(F)c3)n[nH]2)cc1 and report
-1.9%

Do the same for Fc1ccc(-c2ncn(CCCN3CCOCC3)c2-c2ccncc2)cc1 please
-0.89%

Same thing, different compound: Fc1ccc(-c2c(-c3ccncc3)nc3n2CCS3)cc1
4.18%

Then this compound: COc1cccc(/C=N/Nc2ncnc3c2cnn3-c2cccc(OC)c2)c1
10.2%

Continue with COc1ccc(C2=C(N3CCc4ccccc43)C(=O)NC2=O)cc1
16%

Try this compound too: O=C1Nc2ccccc2/C1=C/Nc1ccc(-n2cncn2)cc1
24.7%

Repeat with CN(c1ccc(NC(=O)Nc2c(Cl)cccc2Cl)cc1)c1ccnc(Nc2cccc(CS(C)(=O)=O)c2)n1
29.7%

Then what about the compound FC(F)(F)c1cccc(Nc2nccc(-c3cnn4nc(-c5ccccc5)ccc34)n2)c1 ?
7.77%

Next compound up: COc1cc(Nc2ncc3c(C)nc(-c4cccc(C(F)(F)F)c4)n3n2)cc(OC)c1OC
39.6%

And what about the compound NS(=O)(=O)c1ccc(N/N=C2\C(=O)Nc3ccc(C(=O)NCCCn4ccnc4)cc32)cc1 ?
20.9%

Also need CCS(=O)(=O)c1ccc(OC)c(Nc2ncc(-c3cccc(-c4ccccc4F)c3)o2)c1 , thanks.
0.8%

Another compound to look at: CNC(=O)c1cncc(/C=C/c2c(C)cccc2C)c1
-2.35%

// same read-out, input: CCC(=O)Nc1ccc(C)c(-c2ccc(C(=O)NCC3CC3)cc2)c1
6.44%

For Cc1ccc(NC(=O)c2ccoc2)cc1-c1ccc(C(=O)NCC2CC2)cc1 then?
-0.07%
